System: Fibroblast
Assay Explanation: Multiplex assay against human fibroblast
Type: toxicity, cell-based
Assay Context: 48 h, 10 µM, compound concentration 10 uM, replicate 1
Consider the following compounds and their measured Total Cell Count readings.
Hey, just send me the number, nothing else.

[
  {
    "Compound": "CC(=O)c1cc(-c2cc(C(=O)NC3CC3)ccc2C)c2ncccn12",
    "Tested System": "Fibroblast",
    "Total Cell Count": 145
  },
  {
    "Compound": "CCn1c(-c2nonc2N)nc2cnc(Oc3cccc(NC(=O)c4ccc(OCCN5CCOCC5)cc4)c3)cc21 [GSK-269962A]",
    "Tested System": "Fibroblast",
    "Total Cell Count": 240
  },
  {
    "Compound": "CC(C)N1CCC(C)(C)c2cc(C#Cc3ccc(C(=O)O)cc3)ccc21",
    "Tested System": "Fibroblast",
    "Total Cell Count": 1050
  }
]

Give Fibroblast Total Cell Count for the following compound: `COc1cc2c(NC3CCN(C(C)C)CC3)nc(N3CCC(F)(F)CC3)nc2cc1OCCCN1CCCC1`
362

Give Fibroblast Total Cell Count for the following compound: CCC(=O)O[C@]1(C(=O)SCF)[C@H](C)C[C@H]2[C@@H]3C[C@H](F)C4=CC(=O)C=C[C@]4(C)[C@@]3(F)[C@@H](O)C[C@@]21C [FLUTICASONE PROPIONATE]
167

Give Fibroblast Total Cell Count for the following compound: `CNc1oc(-c2cccc3ccccc23)nc1C#N`
2643

Give Fibroblast Total Cell Count for the following compound: `CCCn1c(=O)c2[nH]c(C34CC5CC(CC3C5)C4)nc2n(CCC)c1=O`
134

Give Fibroblast Total Cell Count for the following compound: `O=C(O)c1ccc2cc(-c3ccc(O)c(C45CC6CC(CC(C6)C4)C5)c3)ccc2c1`
116

* * *

Consider the following compounds and their measured Population Apoptotic (%) readings.
System: Fibroblast
Assay Explanation: Multiplex assay against human fibroblast
Assay type: toxicity, cell-based
Assay Context: 24 h, 10 µM, compound concentration 10 uM, replicate 1
Output spec: scalar in %, unitless text.

Example entries begin here.
[
  {
    "Compound": "CN(C)C/C=C/C(=O)Nc1cc2c(Nc3ccc(F)c(Cl)c3)ncnc2cc1O[C@H]1CCOC1.O=C(O)/C=C\\C(=O)O.O=C(O)/C=C\\C(=O)O [AFATINIB DIMALEATE]",
    "Population Apoptotic (%)": 57
  },
  {
    "Compound": "COc1ccc(NS(=O)(=O)c2sc3ccc(Cl)cc3c2C)cc1N1CCNCC1.Cl",
    "Population Apoptotic (%)": 72
  }
]

Write down Population Apoptotic (%) measured for item `Nc1nc2c(c(N3CCNCC3)n1)CCC1=C2[C@@H]2CCCC[C@@H]2O1`
57

Write down Population Apoptotic (%) measured for item `CC(C)N1CCC(C)(C)c2cc(C#Cc3ccc(C(=O)O)cc3)ccc21`
72

* * *

Test system: HEK-293T
Assay Explanation: Multiplex assay against HEK293T
Type: toxicity, cell-based
Assay Context: human, 48 h, 10 µM, compound concentration 10 uM, replicate 2
Consider the following molecules and their measured Population Membrane Permeable-Phenotype (%) readings.
Give your result as the value with the unit written after it.

Example entries begin here.
[
  {
    "Compound": "COc1ccc(NS(=O)(=O)c2sc3ccc(Cl)cc3c2C)cc1N1CCNCC1.Cl",
    "Value Observed": "6%"
  },
  {
    "Compound": "CNC(=O)c1nn(C)c2c1C(C)(C)Cc1cnc(Nc3ccc(N4CCN(C)CC4)cc3)nc1-2",
    "Value Observed": "2%"
  },
  {
    "Compound": "CNc1oc(-c2cccc3ccccc23)nc1C#N",
    "Value Observed": "1%"
  }
]

Write down Population Membrane Permeable-Phenotype (%) measured for item `Nc1nc2c(c(N3CCNCC3)n1)CCC1=C2[C@@H]2CCCC[C@@H]2O1`
2%

Write down Population Membrane Permeable-Phenotype (%) measured for item `C1=N/C2=N/c3ccc(OCCN4CCCC4)c(c3)COC/C=C\COCc3cccc(c3)C(=C1)N2`
3%

Hey, just so you know, these numbers are from ChEMBL document CHEMBL4689842.
